Target: T1, Fusion protein of extracellular domain of human TIGIT and His-tag (human TIGIT ECD-his) (human)
T1 chain: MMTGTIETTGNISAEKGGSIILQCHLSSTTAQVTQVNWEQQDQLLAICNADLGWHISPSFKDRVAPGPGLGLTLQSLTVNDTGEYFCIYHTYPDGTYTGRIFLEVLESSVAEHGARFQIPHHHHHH
Experiment: BIAcore; KD ratio to TIGIT-CHI-002
Parameter: Fold change vs chimeric antibodies (KD)
In your response, the unit should come after the numeric value.

// solved cases for Fold change vs chimeric antibodies (KD) follow
>  <Binder>
TIGIT-002-H2L3 (antibody, V domains shown, Humanized anti-TIGIT antibody) VH: EVQLQESGPGLVKPSETLSLTCAVSGYSITSDSWNWIRQPPGKKLEWIGYISYSGNTYYNPSLKSRVTISRDTSKNQFSLKLSSVTAADTAVYYCARLDFSNYGGAVDYWGQGTTVTVSS VL: DIVMTQSPDSLAVSLGERATINCKASQNVRTAVAWYQQKPGQSPKLMIYSASYRYTGVPDRFSGSGSGTDFTLTISSLQAEDVAVYYCQQYYTTPWTFGGGTKVEIK

>  <Fold change vs chimeric antibodies (KD)>
6.3 fold

$$$$
>  <Binder>
TIGIT-002-H3L3 (antibody, V domains shown, Humanized anti-TIGIT antibody) VH: EVQLQESGPGLVKPSETLSLTCAVSGYSITSDSWNWIRQPPGKKLEWMGYISYSGNTYYNPSLKSRITISRDTSKNQFSLKLSSVTAADTAVYYCARLDFSNYGGAVDYWGQGTTVTVSS VL: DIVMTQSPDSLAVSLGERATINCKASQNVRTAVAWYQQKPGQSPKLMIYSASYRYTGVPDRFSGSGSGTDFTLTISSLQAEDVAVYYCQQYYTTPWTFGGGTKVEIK

>  <Fold change vs chimeric antibodies (KD)>
4.47 fold

$$$$
>  <Binder>
TIGIT-002-H1L3 (antibody, V domains shown, Humanized anti-TIGIT antibody) VH: EVQLQESGPGLVKPSETLSLTCAVSGYSITSDSWNWIRQPPGKGLEWIGYISYSGNTYYNPSLKSRVTISRDTSKNQFSLKLSSVTAADTAVYYCARLDFSNYGGAVDYWGQGTTVTVSS VL: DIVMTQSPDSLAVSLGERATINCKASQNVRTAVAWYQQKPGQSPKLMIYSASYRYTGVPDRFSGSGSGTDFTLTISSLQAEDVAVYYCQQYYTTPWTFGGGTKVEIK

>  <Fold change vs chimeric antibodies (KD)>
6.44 fold

$$$$

Field: next binder
Incoming: Form field: reported Fold change vs chimeric antibodies (KD) of TIGIT-002-H4L3 (antibody, V domains shown, Humanized anti-TIGIT antibody) VH: EVQLQESGPGLVKPSETLSLTCAVSGYSITSDSWNWIRQPPGKKLEYIGYISYSGNTYYNPSLKSRVTISRDTSKNQFSLKLSSVTAADTAVYYCARLDFSNYGGAVDYWGQGTTVTVSS VL: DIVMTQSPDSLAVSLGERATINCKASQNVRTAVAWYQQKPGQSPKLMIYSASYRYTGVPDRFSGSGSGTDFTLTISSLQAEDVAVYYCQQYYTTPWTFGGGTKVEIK
Outgoing: 1.26 fold
